# Procedure text: Selectivity index, ratio of CC50 for cytotoxic activity against BALB/c mouse T-lymphocytes to IC50 for inhibition of ConA-induced cell proliferation of BALB/c mouse T-lymphocytes
# Type: toxicity
# Experimental setup: read-out: Ratio CC50/IC50
Items are presented alongside their recorded selectivity ratio.

Solved entries (count: 5):
| Sample smiles | selectivity ratio |
| --- | --- |
| COC1=C[C@@H](C)O[C@@H](O[C@H]2CC[C@@]3(C)C(=CC[C@@H]4[C@@H]3CC[C@@]3(C)[C@H]4CC[C@]3(O)[C@H](C)O[C@H]3C[C@H]4OCO[C@@]5(C[C@@H](OC)[C@H](O[C@H]6C[C@H](OC)[C@H](O[C@H]7C[C@H](OC)[C@H](O[C@H]8C[C@H](OC)[C@H](O[C@@H]9O[C@H](C)[C@H](O)[C@H](OC)[C@H]9OC(C)=O)[C@@H](C)O8)[C@@H](C)O7)[C@@H](C)O6)[C@@H](C)O5)O[C@@H]4[C@@H](C)O3)C2)C1=O | 82.5 |
| COC1=C[C@@H](C)O[C@@H](O[C@H]2CC[C@@]3(C)C(=CC[C@@H]4[C@@H]3CC[C@@]3(C)[C@H]4CC[C@]3(O)[C@H](C)O[C@H]3C[C@H]4OCO[C@@]5(C[C@@H](OC)[C@H](O[C@H]6C[C@H](OC)[C@H](O[C@H]7C[C@H](OC)[C@H](O)[C@@H](C)O7)[C@@H](C)O6)[C@@H](C)O5)O[C@@H]4[C@@H](C)O3)C2)C1=O | 0.5 |
| CCOCO[C@@H]1C[C@H](O[C@@H](C)[C@@]2(O)CC[C@H]3[C@@H]4CC=C5C[C@@H](O[C@@H]6O[C@H](C)C=C(OC)C6=O)CC[C@]5(C)[C@H]4CC[C@@]32C)O[C@H](C)[C@H]1O | 31.3 |
| COC1=C[C@@H](C)O[C@@H](O[C@H]2CC[C@@]3(C)C(=CC[C@@H]4[C@@H]3CC[C@@]3(C)[C@H]4CC[C@]3(O)[C@H](C)O[C@H]3C[C@H]4OCO[C@@]5(C[C@@H](OC)[C@H](O)[C@@H](C)O5)O[C@@H]4[C@@H](C)O3)C2)C1=O | 5.5 |
| CO[C@H]1[C@@H](O)[C@@H](C)O[C@@H](O[C@H]2[C@@H](OC)C[C@H](O[C@H]3[C@@H](OC)C[C@H](O[C@H]4[C@@H](OC)C[C@H](O[C@@H]5[C@@H](C)O[C@@]6(C[C@H]5OC)OCO[C@@H]5C[C@H](O[C@@H](C)[C@@]7(O)CC[C@H]8[C@@H]9CC=C%10C[C@@H](O)CC[C@]%10(C)[C@H]9CC[C@@]87C)O[C@H](C)[C@H]5O6)O[C@@H]4C)O[C@@H]3C)O[C@@H]2C)[C@@H]1O | > 22 |

## Input Form field: reported selectivity ratio of `CO[C@H]1[C@@H](O)[C@@H](C)O[C@@H](O[C@H]2[C@@H](OC)C[C@H](O[C@H]3[C@@H](OC)C[C@H](O[C@H]4[C@@H](OC)C[C@H](O[C@@H]5[C@@H](C)O[C@@]6(C[C@H]5OC)OCO[C@@H]5C[C@H](O[C@@H](C)[C@@]7(O)CC[C@H]8[C@@H]9CC=C%10C[C@@H](OC=O)CC[C@]%10(C)[C@H]9CC[C@@]87C)O[C@H](C)[C@H]5O6)O[C@@H]4C)O[C@@H]3C)O[C@@H]2C)[C@@H]1OC(C)=O`
## Output 10.5

## Input Please give the result for `COC1=C[C@@H](C)O[C@@H](O[C@H]2CC[C@@]3(C)C(=CC[C@@H]4[C@@H]3CC[C@@]3(C)[C@H]4CC[C@]3(O)[C@H](C)O[C@H]3C[C@H]4OCO[C@@]5(C[C@@H](OC)[C@H](O[C@H]6C[C@H](O)[C@H](O[C@H]7C[C@H](OC)[C@H](O[C@H]8C[C@H](OC)[C@H](O[C@@H]9O[C@H](C)[C@H](O)[C@H](OC)[C@H]9O)[C@@H](C)O8)[C@@H](C)O7)[C@@H](C)O6)[C@@H](C)O5)O[C@@H]4[C@@H](C)O3)C2)C1=O` too.
## Output 18.4
